Molecular target: FSHR (Homo sapiens, UniProt P23945)
Sequence (P23945 18-695): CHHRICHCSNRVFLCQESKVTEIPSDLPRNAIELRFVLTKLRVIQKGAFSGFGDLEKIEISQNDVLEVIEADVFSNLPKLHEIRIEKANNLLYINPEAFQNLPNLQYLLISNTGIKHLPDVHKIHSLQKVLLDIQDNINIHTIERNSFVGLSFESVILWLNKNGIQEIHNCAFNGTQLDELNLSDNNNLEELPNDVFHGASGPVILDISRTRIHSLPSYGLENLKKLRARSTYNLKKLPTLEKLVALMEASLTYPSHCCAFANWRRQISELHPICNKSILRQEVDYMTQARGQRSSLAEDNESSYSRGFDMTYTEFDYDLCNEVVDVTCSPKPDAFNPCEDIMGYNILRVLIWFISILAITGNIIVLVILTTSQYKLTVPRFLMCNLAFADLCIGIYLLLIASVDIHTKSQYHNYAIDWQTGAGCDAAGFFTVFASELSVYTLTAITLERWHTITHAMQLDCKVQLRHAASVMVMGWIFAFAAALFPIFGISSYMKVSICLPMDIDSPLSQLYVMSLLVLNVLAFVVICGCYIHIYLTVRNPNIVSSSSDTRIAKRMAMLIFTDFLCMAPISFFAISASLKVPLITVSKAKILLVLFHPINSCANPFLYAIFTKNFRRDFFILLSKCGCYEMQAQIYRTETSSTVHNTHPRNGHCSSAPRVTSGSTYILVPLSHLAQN
Assay: EC50 of cyclic AMP production in CHO FSHR cells + EC20 FSH (Assay A)
Conditions: cyclic AMP production in CHO FSHR cells + EC20 FSH (0.265 pM), HTRF
parameter: EC50

A selection of reference data follows.
compound	EC50
COc1cc2c(cc1-c1cccnc1F)-c1c(c(C(=O)N(C)C(C)(C)C)nn1-c1ccsc1)CO2	< 10 nM
COc1cc2c(cc1-c1ccccn1)-c1c(c(C(=O)N3CCOCC3(C)C)nn1-c1cc(Cl)cc(Cl)c1)CO2	< 10 nM
COc1cc2c(cc1-c1ccn(C)n1)-c1c(c(C(=O)N3CCC(O)CC3(C)C)nn1-c1ccsc1)CO2 (stereo not shown)	10 to 100 nM

[ask] # lookup: EC50 of COc1cc2c(cc1-c1ccn(C)n1)-c1c(c(C(=O)N(C)C(C)(C)C)nn1-c1cc(Cl)cc(C(F)(F)F)c1)CO2
[reply] 10 to 100 nM

====

Target: follicle-stimulating hormone (FSH) receptor (Rattus norvegicus, UniProt P20395)
Construct: endogenous in cells
Sequence (P20395 18-692): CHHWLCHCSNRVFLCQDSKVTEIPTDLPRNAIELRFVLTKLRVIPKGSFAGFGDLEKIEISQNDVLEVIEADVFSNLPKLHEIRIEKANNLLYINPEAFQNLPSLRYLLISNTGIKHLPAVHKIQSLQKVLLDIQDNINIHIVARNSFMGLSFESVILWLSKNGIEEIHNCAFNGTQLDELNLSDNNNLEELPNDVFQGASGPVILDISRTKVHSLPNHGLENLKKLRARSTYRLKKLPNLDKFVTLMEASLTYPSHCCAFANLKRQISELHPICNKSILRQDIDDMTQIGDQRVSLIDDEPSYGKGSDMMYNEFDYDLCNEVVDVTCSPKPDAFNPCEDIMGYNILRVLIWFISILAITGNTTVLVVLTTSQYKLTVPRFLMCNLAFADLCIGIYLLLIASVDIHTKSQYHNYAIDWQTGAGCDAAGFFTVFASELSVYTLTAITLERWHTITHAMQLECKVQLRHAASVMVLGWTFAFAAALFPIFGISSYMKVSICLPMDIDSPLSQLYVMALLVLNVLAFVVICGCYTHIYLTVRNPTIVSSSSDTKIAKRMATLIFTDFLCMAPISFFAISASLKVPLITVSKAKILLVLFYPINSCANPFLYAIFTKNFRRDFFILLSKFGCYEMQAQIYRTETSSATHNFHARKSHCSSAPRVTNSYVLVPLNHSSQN
Assay: Rat granulosa EC50 FSH (Assay B)
parameter: EC50

A selection of reference data follows.
compound	EC50
COc1cc2c(cc1-c1ccn(C)n1)-c1c(c(C(=O)N3CCOCC3(C)C)nn1-c1cc(C)cc(Cl)c1)CO2	101 to 500 nM
COc1cc2c(cc1-c1cnc(N)c(C)c1)-c1c(c(C(=O)N(C)C(C)(C)C)nn1-c1cc(Cl)cc(Cl)c1)CO2	101 to 500 nM
COc1cc(OC)cc(-n2nc(C(=O)N(C)C(C)(C)C)c3c2-c2cc(-c4nn(C)cc4Br)c(OC)cc2OC3)c1	101 to 500 nM
COc1cc(OC)cc(-n2nc(C(=O)N(C)C(C)(C)C)c3c2-c2cc(-c4cc[nH]c4)c(OC)cc2OC3)c1	101 to 500 nM
COc1cc2c(cc1-c1c(C)nn(CC(N)=O)c1C)-c1c(c(C(=O)N(C)C(C)(C)C)nn1-c1cc(Cl)cc(Cl)c1)CO2	10 to 100 nM

[ask] # lookup: EC50 of COc1cc2c(cc1-c1ncnn1C)-c1c(c(C(=O)N(C)C(C)(C)C)nn1-c1ccsc1)CO2
[reply] > 500 nM

[ask] # lookup: EC50 of COc1cc2c(cc1-c1cc(C(N)=O)c[n+]([O-])c1)-c1c(c(C(=O)N3CCOCC3(C)C)nn1-c1cc(Cl)cc(Cl)c1)CO2
[reply] 10 to 100 nM

[ask] # lookup: EC50 of COc1cc2c(cc1-c1cncc(C(N)=O)c1)-c1c(c(C(=O)N(C)C(C)(C)C)nn1-c1cc(F)cc(F)c1)CO2
[reply] 10 to 100 nM

[ask] # lookup: EC50 of COc1cc2c(cc1-c1cccc(O)c1)-c1c(c(C(=O)N(C)C(C)(C)C)nn1-c1cc(Cl)cc(Cl)c1)CO2
[reply] 10 to 100 nM

[ask] # lookup: EC50 of COc1cc2c(cc1-c1cncc(C(=O)N(C)C)c1)-c1c(c(C(=O)N3CCOCC3(C)C)nn1-c1cc(Cl)cc(Cl)c1)CO2
[reply] 10 to 100 nM

====

Biological target: FSHR (Homo sapiens)
Assay: EC50 of cyclic AMP production in CHO FSHR cells + EC20 FSH (Assay A)
Details: cyclic AMP production in CHO FSHR cells + EC20 FSH (0.265 pM), HTRF
parameter: EC50

A selection of reference data follows.
molecule	EC50
COc1cc2c(cc1-c1cccnc1F)-c1c(c(C(=O)N3CC[S+]([O-])CC3(C)C)nn1-c1cc(Cl)cc(Cl)c1)CO2 (stereo not shown)	< 0.01 µM
COc1cc2c(cc1-c1cncc(S(N)(=O)=O)c1)-c1c(c(C(=O)N(C)C(C)(C)C)nn1-c1cc(Cl)cc(Cl)c1)CO2	< 0.01 µM
COc1cc2c(cc1-c1ccn(C)n1)-c1c(c(C(=O)N(C)C(C)(C)C)nn1-c1cc(C)cc(Cl)c1)CO2	0.101 to 0.5 µM
COc1cc(Cl)cc(-n2nc(C(=O)N3CCOCC3(C)C)c3c2-c2cc(-c4cncc(C(N)=O)c4)c(OC)cc2OC3)c1	< 0.01 µM
COc1cc2c(cc1-c1cccc(C#N)c1)-c1c(c(C(=O)N(C)C(C)(C)C)nn1-c1cc(Cl)cc(Cl)c1)CO2	0.01 to 0.1 µM

[ask] Can you look up EC50 on FSHR (Homo sapiens) for COc1cc2c(cc1-c1cccc(CO)c1F)-c1c(c(C(=O)N(C)C(C)(C)C)nn1-c1cc(Cl)cc(Cl)c1)CO2 ?
[reply] 0.01 to 0.1 µM

[ask] Can you look up EC50 on FSHR (Homo sapiens) for COc1cc2c(cc1-c1cnn(C(N)=O)c1)-c1c(c(C(=O)N(C)C(C)(C)C)nn1-c1cc(Cl)cc(Cl)c1)CO2 ?
[reply] < 0.01 µM

[ask] Can you look up EC50 on FSHR (Homo sapiens) for COc1cc(F)cc(-n2nc(C(=O)N(C)C(C)(C)C)c3c2-c2cc(-c4cncc(C(N)=O)c4)c(OC)cc2OC3)c1 ?
[reply] < 0.01 µM

[ask] Can you look up EC50 on FSHR (Homo sapiens) for COc1cc2c(cc1-c1cc(C#N)c[n+]([O-])c1)-c1c(c(C(=O)N3CCOCC3(C)C)nn1-c1cc(Cl)cc(Cl)c1)CO2 ?
[reply] < 0.01 µM

[ask] Can you look up EC50 on FSHR (Homo sapiens) for COc1cc(OC)cc(-n2nc(C(=O)N(C)C(C)(C)C)c3c2-c2cc(-c4cc(C(N)=O)c[n+]([O-])c4)c(OC)cc2OC3)c1 ?
[reply] < 0.01 µM

[ask] Can you look up EC50 on FSHR (Homo sapiens) for COc1cc(OC)cc(-n2nc(C(=O)N(C)C(C)(C)C)c3c2-c2cc(-c4nn(C)cc4Br)c(OC)cc2OC3)c1 ?
[reply] < 0.01 µM

[ask] Can you look up EC50 on FSHR (Homo sapiens) for COc1cc2c(cc1-c1cccnc1C#N)-c1c(c(C(=O)N(C)C(C)(C)C)nn1-c1cc(Cl)cc(Cl)c1)CO2 ?
[reply] < 0.01 µM

[ask] Can you look up EC50 on FSHR (Homo sapiens) for [2H]C([2H])([2H])Oc1cc(Cl)cc(-n2nc(C(=O)N(C)C(C)(C)C)c3c2-c2cc(-c4cncc(C(N)=O)c4)c(OC([2H])([2H])[2H])cc2OC3)c1 ?
[reply] < 0.01 µM

====

Target: FSHR (Homo sapiens)
Assay: EC50 of cyclic AMP production in CHO FSHR cells + EC20 FSH (Assay A)
Conditions: cyclic AMP production in CHO FSHR cells + EC20 FSH (0.265 pM), HTRF
Catalogue of molecules with associated EC50

A selection of reference data follows.
molecule	parameter	val
COCC1(CC(C)C)CCCN1C(=O)c1nn(-c2ccsc2)c2c1COc1cc(OC)c(-c3ccn(C)n3)cc1-2 (stereo not shown)	EC50	10 to 100 nM
COc1cc2c(cc1-c1ccc(F)c(C(=O)O)c1)-c1c(c(C(=O)N(C)C(C)(C)C)nn1-c1cc(Cl)cc(Cl)c1)CO2	EC50	10 to 100 nM
COc1cc(F)cc(-n2nc(C(=O)N3CCOCC3(C)C)c3c2-c2cc(-c4cnn(CC(N)=O)c4)c(OC)cc2OC3)c1	EC50	< 10 nM

--- query ---
[ask] # lookup: EC50 of COc1cc2c(cc1-c1ccn(C)n1)-c1c(c(C(=O)N3C[C@H](O)[C@H](O)CC3(C)C)nn1-c1ccsc1)CO2
[reply] 10 to 100 nM
